Entries and their pIC50
system: Leishmania (L.) infantum promastigotes (strain MHOM/MA/67/ITMAP-263); assay: organism not typed; format: cell-based; settings: 24 h, read-out: Anti-Promastigote Activity (IC50)
Interpret pIC50 as the negative base-10 log of the concentration measured in mol/L.

compound	pIC50
O=CNCCCCCCNc1c2c(nc3ccccc13)CCCC2 [Compound 8.e]	5.49
CC(=O)NCCCCCCCCCCNc1c2c(nc3cc(Cl)ccc13)CCCC2 [Compound 7.f]	4.95
c1ccc2c(NCCCCCCCCNc3c4c(nc5ccccc35)CCCC4)c3c(nc2c1)CCCC3 [Compound 10.e]	5.52
c1ccc2c(NCCCCCCCCCCCCNc3c4c(nc5ccccc35)CCCC4)c3c(nc2c1)CCCC3 [Compound 10.g]	6.43

// switching to the query compound
Provide pIC50 value for the following compound: Clc1ccc2c(NCCCCCCCCCCCCNc3ccnc4cc(Cl)ccc34)ccnc2c1 [Compound 12]
6.22

----------
tested on: Leishmania (L.) infantum promastigotes (strain MHOM/MA/67/ITMAP-263); assay: organism not typed; assay type: cell-based; settings: 24 h, read-out: Anti-Promastigote Activity (IC50)
property label: IC50

The examples below pair each entry with its known result.
compound	result
C[C@@H]1[C@H](O)[C@@H](C)/C=C/C=C/C=C/C=C/C=C/C=C/C=C/[C@H](O[C@@H]2O[C@H](C)[C@@H](O)[C@H](N)[C@@H]2O)C[C@@H]2O[C@](O)(C[C@@H](O)C[C@@H](O)[C@H](O)CC[C@@H](O)C[C@@H](O)CC(=O)O[C@H]1C)C[C@H](O)[C@H]2C(=O)O [Amphotericin B, reference compound]	0.17 µM
CC(=O)NCCCCCCCCCCNc1c2c(nc3ccccc13)CCCC2	> 100 µM

// switching to the query compound
Provide IC50 value for the following compound: `O=CNNc1c2c(nc3ccccc13)CCCC2`
> 50 µM

----------
test: in vitro; settings: BALB/c, mouse
Entries and their cytotoxicity at 10 µM
Numeric answer only, unit % assumed.

The examples below pair each entry with its known result.
molecule	result number
Clc1ccc2c(NCCCNc3c4c(nc5cc(Cl)ccc35)CCCC4)c3c(nc2c1)CCCC3 [Compound 10.i]	90.4
CC(=O)NCCCCCCCCCCNc1c2c(nc3cc(Cl)ccc13)CCCC2 [Compound 7.f]	77.5
c1ccc2c(NCCCCCCCCCCCCNc3c4c(nc5ccccc35)CCCC4)c3c(nc2c1)CCCC3 [Compound 10.g]	99.7

Provide cytotoxicity at 10 µM value for the following molecule: O=CNCCCCCCNc1c2c(nc3ccccc13)CCCC2 [Compound 8.e]
94.7

Provide cytotoxicity at 10 µM value for the following molecule: O=CNCCCCCCCCNc1c2c(nc3ccccc13)CCCC2 [Compound 8.f]
91.2

Provide cytotoxicity at 10 µM value for the following molecule: c1ccc2c(NCCCCCCCCCCNc3c4c(nc5ccccc35)CCCC4)c3c(nc2c1)CCCC3 [Compound 10.f]
99.5

----------
assay: in vitro; conditions: BALB/c, mouse
Entries and their EC50
Numeric answer only, unit µM assumed.

The examples below pair each entry with its known result.
compound	measurement units	EC50
Clc1ccc2c(NCCCCCCCCCCCCNc3ccnc4cc(Cl)ccc34)ccnc2c1	µM	11.7
Clc1ccc2c(NCCCCNc3c4c(nc5cc(Cl)ccc35)CCCC4)c3c(nc2c1)CCCC3	µM	9.02

// switching to the query compound
Provide EC50 value for the following compound: C[C@@H]1[C@H](O)[C@@H](C)/C=C/C=C/C=C/C=C/C=C/C=C/C=C/[C@H](O[C@@H]2O[C@H](C)[C@@H](O)[C@H](N)[C@@H]2O)C[C@@H]2O[C@](O)(C[C@@H](O)C[C@@H](O)[C@H](O)CC[C@@H](O)C[C@@H](O)CC(=O)O[C@H]1C)C[C@H](O)[C@H]2C(=O)O [Amphotericin B, reference compound]
3.1

----------
system: Leishmania (L.) infantum promastigotes (strain MHOM/MA/67/ITMAP-263); test: organism not typed; format: cell-based; details: 24 h, read-out: Anti-Promastigote Activity (IC50)
property label: IC50

1. c1ccc2c(NCCCCCNc3c4c(nc5ccccc35)CCCC4)c3c(nc2c1)CCCC3 > 50 µM
2. CC(=O)NCCCCCCCCNc1c2c(nc3cc(Cl)ccc13)CCCC2 > 100 µM

Provide IC50 value for the following molecule: `Clc1c2c(nc3ccccc13)CCCC2`
> 100 µM

Provide IC50 value for the following molecule: `O=CNCCNc1c2c(nc3ccccc13)CCCC2`
1.69 µM

Provide IC50 value for the following molecule: `c1ccc2c(NCCCCCCCCCCNc3c4c(nc5ccccc35)CCCC4)c3c(nc2c1)CCCC3`
0.94 µM

Provide IC50 value for the following molecule: `O=CNCNc1c2c(nc3ccccc13)CCCC2`
5.64 µM

Provide IC50 value for the following molecule: `Clc1ccc2c(Cl)c3c(nc2c1)CCCC3`
> 100 µM

Provide IC50 value for the following molecule: `O=CNCCCNc1c2c(nc3ccccc13)CCCC2`
14.2 µM

Provide IC50 value for the following molecule: `O=CNCCCCCCCCNc1c2c(nc3ccccc13)CCCC2`
1.55 µM

Data provenance: paper PMC9965875
